pIC50: −log10 of the molar value.
Cytochrome P450 2D6 (Homo sapiens) pIC50 data
Sequence (P10635 whole entry): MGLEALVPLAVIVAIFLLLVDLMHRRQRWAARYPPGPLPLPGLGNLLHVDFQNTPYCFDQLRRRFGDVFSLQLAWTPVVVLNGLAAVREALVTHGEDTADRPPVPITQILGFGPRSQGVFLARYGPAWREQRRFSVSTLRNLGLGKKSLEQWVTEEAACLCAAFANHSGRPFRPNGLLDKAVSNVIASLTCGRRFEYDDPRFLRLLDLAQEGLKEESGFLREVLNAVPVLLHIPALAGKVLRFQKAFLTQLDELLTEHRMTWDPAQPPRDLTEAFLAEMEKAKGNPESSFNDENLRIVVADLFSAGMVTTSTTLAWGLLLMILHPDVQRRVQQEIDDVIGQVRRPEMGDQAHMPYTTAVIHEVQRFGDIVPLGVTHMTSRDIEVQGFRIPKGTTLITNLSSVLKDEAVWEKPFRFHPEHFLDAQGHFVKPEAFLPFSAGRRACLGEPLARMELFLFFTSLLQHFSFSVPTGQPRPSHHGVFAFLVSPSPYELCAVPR

Solved entries (count: 2):
Cpd smiles	System name	pIC50
NC(=O)c1sc2ncccc2c1N	Cytochrome P450 2D6 (Homo sapiens)	< 4.52
NC(=O)c1nc(-c2ccc(C(F)(F)F)cc2)oc1N	Cytochrome P450 2D6 (Homo sapiens)	< 4.52

Now for another entry.
stdin: Record lookup: for Cytochrome P450 2D6 (Homo sapiens), what pIC50 belongs to NC(=O)c1nc(-c2ccccc2)oc1N ?
stdout: < 4.52

----------
Experiment: Half life in human liver microsome
Type: ADME
Settings: liver microsomes
Measured property: half-life (min)

Solved entries (count: 2):
Cpd smiles	U	Quantitative readout
NC(=O)c1sc(-c2ccc(F)cc2)cc1N	min	12
NC(=O)c1nc(-c2ccccc2)oc1N	min	68

a: Cc1cc(C)c2c(N)c(C(N)=O)sc2n1
b: NC(=O)c1sc2ncccc2c1N
c: NC(=O)c1nc(-c2ccc(C(F)(F)F)cc2)oc1N
d: NC(=O)c1sc(-c2ccccc2)cc1N
stdin: Reorder: half-life, max to min. Your reply should list the labels following the order given in the request.
stdout: b, a, d, c
(b: 146 min, a: 78 min, d: 22 min, c: 15 min)
